molecular target: HLA-A*03:01; test: IEDB peptide-MHC binding, purified MHC/competitive/radioactivity; filed as Kd, often an IC50 or EC50 that approximates it; bounds were set here for any values at or beyond the usual limits of such assays; details: source organism: Mammarenavirus brazilense
measurement label: pKd
Give bare numbers, as −log10 of the molar value.

Reported pKd, sequence `NYILCYRKPH` : ____
5.27

---

target: HLA-A*01:01; assay: IEDB peptide-MHC binding, purified MHC/direct/fluorescence; filed as Kd, often an IC50 or EC50 that approximates it; bounds were set here for any values at or beyond the usual limits of such assays; conditions: source organism: Escherichia coli O157:H7
pKd: −log10 of the molar value.
measurement label: pKd

# example entries with known answers
• VVPLYDTPL = ≤ 4.70
• VSRDFDDVY = 4.73

Reported pKd, sequence `FIVEHINAM` : ____
≤ 4.70

---

target: HLA-A*11:01; assay: IEDB peptide-MHC binding, purified MHC/competitive/fluorescence; filed as Kd, often an IC50 or EC50 that approximates it; bounds were set here for any values at or beyond the usual limits of such assays; details: source organism: Influenza A virus H3N2
measurement label: Kd

Reported Kd, sequence `MKWMMAMKY` : ____
≥ 20 µM

---

biological target: HLA-B*46:01; assay: IEDB peptide-MHC binding, purified MHC/direct/fluorescence; filed as Kd, often an IC50 or EC50 that approximates it; bounds were set here for any values at or beyond the usual limits of such assays; conditions: source organism: Vibrio vulnificus
pKd: −log10 of the molar value.
measurement label: pKd

Record `VTFFCVMTY` : what is its pKd with HLA-B*46:01?
≤ 4.70

---

Would you mind telling me the reported Kd of each entry?
molecular target: HLA-A*02:19; experiment: IEDB peptide-MHC binding, purified MHC/direct/fluorescence; filed as Kd, often an IC50 or EC50 that approximates it; bounds were set here for any values at or beyond the usual limits of such assays; settings: source organism: Limestone Canyon virus

Fill in Kd for each of the 2 sequences listed.
1. RTLGVFRYK
2. KLKSVGKAY

1: ≥ 20 µM; 2: ≥ 20 µM

---

target: HLA-B*08:01; assay: IEDB peptide-MHC binding, purified MHC/direct/fluorescence; filed as Kd, often an IC50 or EC50 that approximates it; bounds were set here for any values at or beyond the usual limits of such assays; conditions: source organism: SARS-CoV1
Would you mind telling me the reported Kd of each entry?
Give bare numbers, in µM.

• NQATTKTTF = 7.15

Below: the item to evaluate.
Reported Kd, sequence `FMGRIRSVY` : ____
0.605

---

molecular target: HLA-A*11:01; experiment: IEDB peptide-MHC binding, purified MHC/direct/fluorescence; filed as Kd, often an IC50 or EC50 that approximates it; bounds were set here for any values at or beyond the usual limits of such assays; settings: source organism: Mycobacterium tuberculosis
measurement label: pKd
One number for each entry, as −log10 of the molar value.

Reported pKd, sequence `KVMVICYAY` : ____
6.31

---

biological target: HLA-C*15:02; assay: IEDB peptide-MHC binding, purified MHC/direct/fluorescence; filed as Kd, often an IC50 or EC50 that approximates it; bounds were set here for any values at or beyond the usual limits of such assays; conditions: source organism: Entamoeba histolytica HM-1:IMSS
measurement label: Kd (µM)
Give bare numbers, in µM.

Record `YIISTHYQF` : what is its Kd with HLA-C*15:02?
1.94
